- System: NDR2;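 also: KINOMEscan kinase panel screen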
- STUDY_CONDITIONS: concentration: 1 μM,replicates: in singlicate; n = 1
Each entry below lists one item and its recorded %Inh value.
Kindly answer with a numeric value in %, unit omitted.

COMPOUND | UNIT_TAG | %Inh
CS(=O)(=O)Nc1ccc(-c2ccnc3[nH]ccc23)cc1 [GSK993273] | % | 6
CCn1c(-c2nonc2N)nc2cncc(CNC3CCNCC3)c21.Cl [SB-747651] | % | 0
CC(=O)Nc1ccc(-c2cc3ncnc(SCC(=O)O)c3s2)cc1 | % | 8
O=C(NOCC1CC1)c1cc(Br)c(F)c(F)c1Nc1ccc(I)cc1Cl | % | 0
O=c1[nH]cc(-c2ccc(O)cc2)c2sc(-c3ccncc3)cc12 [GSK1033723] | % | 8

Consider the record given below.
Problem: Observed %Inh on NDR2 for CN(c1cccc(CNc2nc(Nc3ccc4c(c3)CC(=O)N4)ncc2C(F)(F)F)c1)S(C)(=O)=O , please.
Solution: 0
